- Tested on: BLT1 and BLT2 receptors
- assay text: Ca2+ flux assay for LTB4 antagonist assay (HL-60 FLIPR)
- Format: cell-based, Human
- condition parameters: retinoic acid induced HL-60 cells endogenously expressing BLT1 and BLT2; inhibition of LTB4-induced Ca2+ flux; 30 min compound preincubation; read-out: LTB4 antagonism (HL-60 FLIPR)
- Description: Ca^2+ Flux Assay for LTB4 Antagonist Assay Human leukemia HL-60 cells endogenously expressing BLT1 and BLT2 receptors were cultured in RPMI-1640 medium supplemented with 20% fetal bovine serum, 2 mM glutamine, 100 U/mL penicillin and 100 ug/mL streptomycin. Seventy two hours prior to experiment cells are counted using ViaCount reagent, centrifuged and resuspended at 2.0×10^5 cells/ml density with the complete growth media containing 1 μM retinoic acid (Sigma). […]
pIC50: −log10 of the molar value.

# mol, pIC50
rows = [
    ("O=C(O)CCCOc1cccc(CCCCCCOc2cc(C(=O)N3CCNCC3)cc(-c3ccc4c(c3)OCO4)c2)c1CCC(=O)O", 10.10),
    ("NC(=O)c1cc(OCCCCCCc2cccc(OCCCC(=O)O)c2CCC(=O)O)cc(-c2ccc3c(c2)OCO3)c1", 9.70),
    ("Cc1ccc(-c2cc(OCCCCCCc3cccc(OCCCC(=O)O)c3CCC(=O)O)cc(C(=O)N(C)C)c2)cc1F", 9.10),
    ("CCN(C)C(=O)c1cc(OCCCCCCc2cccc(OCCCC(=O)O)c2CCC(=O)O)cc(-c2ccc3c(c2)OCO3)c1", 9.60),
    ("O=C(O)CCCOc1cccc(CCCCCCOc2cc(C(=O)N3CCCCC3)cc(-c3ccc4c(c3)OCO4)c2)c1CCC(=O)O", 9.68),
    ("CN1CCN(C(=O)c2cc(CCCCCCCc3cccc(OCCCC(=O)O)c3CCC(=O)O)cc(-c3ccccc3)c2)CC1", 7.71),
    ("CN(C)C(=O)c1cc(OCCCCCCc2cccc(OCCCC(=O)O)c2CCC(=O)O)cc(-c2ccsc2)c1", 9.55),
]

----------
log10 IC50: recorded values
- Tested on: BLT1 and BLT2 receptors
- assay text: Ca2+ flux assay for LTB4 antagonist assay (HL-60 FLIPR)
- Type: cell-based, Human
- condition parameters: retinoic acid induced HL-60 cells endogenously expressing BLT1 and BLT2; inhibition of LTB4-induced Ca2+ flux; 30 min compound preincubation; read-out: LTB4 antagonism (HL-60 FLIPR)
measured quantity: log10 IC50 (log10 of the value in nM)

# compound, log10 IC50
rows = [
    ("CC1CCCN(C(=O)c2cc(OCCCCCCc3cccc(OCCCC(=O)O)c3CCC(=O)O)cc(-c3ccc4c(c3)OCO4)c2)C1 (stereo not shown) [Example 46]", 0.87),
    ("O=C(O)CCCOc1cccc(CCCCCCOc2cc(C(=O)NC3CCC3)cc(-c3ccc4c(c3)OCO4)c2)c1CCC(=O)O [Example 61]", -0.68),
    ("CN1CCCN(C(=O)c2cc(OCCCCCCc3cccc(OCCCC(=O)O)c3CCC(=O)O)cc(-c3ccc4c(c3)OCO4)c2)CC1 [Example 36]", -0.85),
    ("CN1CCN(C(=O)c2cc(OCCCCCCc3cccc(OCCCC(=O)O)c3CCC(=O)O)cc(-c3ccccc3)c2)CC1 [Example 28]", -0.66),
    ("CNC(=O)c1cc(OCCCCCCc2cccc(OCCCC(=O)O)c2CCC(=O)O)cc(-c2ccc3c(c2)OCCO3)c1 [Example 77]", 0.38),
    ("CN(C)C(=O)c1cc(C#CCCCCCc2cccc(OCCCC(=O)O)c2CCC(=O)O)cc(-c2ccc(O)cc2)c1 [Example 122]", 1.19),
    ("O=C(O)CCCOc1cccc(CCCCCCOc2cc(C(=O)NCc3ccccc3)cc(-c3c(F)cccc3F)c2)c1CCC(=O)O [Example 5]", 2.48),
]
